# system under test: SOS1 protein (Homo sapiens, UniProt Q07889)
# Sequence (Q07889 1-1333): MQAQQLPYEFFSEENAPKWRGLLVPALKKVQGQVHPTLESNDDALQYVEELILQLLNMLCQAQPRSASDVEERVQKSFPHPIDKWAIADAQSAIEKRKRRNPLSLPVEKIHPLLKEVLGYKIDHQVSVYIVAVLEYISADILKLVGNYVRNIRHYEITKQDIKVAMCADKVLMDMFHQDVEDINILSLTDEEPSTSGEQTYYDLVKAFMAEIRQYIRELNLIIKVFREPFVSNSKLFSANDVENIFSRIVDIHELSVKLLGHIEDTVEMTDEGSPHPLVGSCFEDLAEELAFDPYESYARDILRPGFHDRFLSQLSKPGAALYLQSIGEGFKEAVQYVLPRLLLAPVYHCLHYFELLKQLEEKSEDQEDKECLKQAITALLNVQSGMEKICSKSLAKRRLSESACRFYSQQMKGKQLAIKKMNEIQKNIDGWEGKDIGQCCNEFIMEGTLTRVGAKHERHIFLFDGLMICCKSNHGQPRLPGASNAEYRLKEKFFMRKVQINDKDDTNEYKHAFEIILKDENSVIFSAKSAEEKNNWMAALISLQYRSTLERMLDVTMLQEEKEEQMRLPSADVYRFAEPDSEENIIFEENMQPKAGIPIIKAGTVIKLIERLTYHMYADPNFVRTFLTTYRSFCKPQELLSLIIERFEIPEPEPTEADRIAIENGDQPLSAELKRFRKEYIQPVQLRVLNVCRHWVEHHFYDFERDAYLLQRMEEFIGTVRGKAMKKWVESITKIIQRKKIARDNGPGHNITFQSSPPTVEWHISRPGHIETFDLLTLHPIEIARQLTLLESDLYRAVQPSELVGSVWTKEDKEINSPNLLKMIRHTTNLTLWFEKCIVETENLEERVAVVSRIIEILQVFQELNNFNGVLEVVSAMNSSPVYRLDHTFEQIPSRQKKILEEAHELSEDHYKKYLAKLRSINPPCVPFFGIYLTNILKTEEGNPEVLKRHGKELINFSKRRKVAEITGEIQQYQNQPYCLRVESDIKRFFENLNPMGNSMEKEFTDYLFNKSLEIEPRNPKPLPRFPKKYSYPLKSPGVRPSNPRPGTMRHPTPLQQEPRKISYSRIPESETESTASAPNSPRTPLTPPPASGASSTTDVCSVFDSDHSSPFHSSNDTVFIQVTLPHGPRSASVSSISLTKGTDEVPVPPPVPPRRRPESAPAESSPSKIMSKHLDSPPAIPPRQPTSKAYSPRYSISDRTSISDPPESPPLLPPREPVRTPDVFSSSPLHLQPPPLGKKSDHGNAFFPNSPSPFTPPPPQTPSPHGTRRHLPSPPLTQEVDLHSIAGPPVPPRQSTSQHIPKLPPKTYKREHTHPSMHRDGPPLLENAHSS
# measurement notes: SOS1 degradation assay (Western blot), NCI-H358 cells
# Assay type: cell-based
# Parameters: The degradation of SOS1 by the compounds was investigated on KRAS G12C mutant human non-small cell lung cancer cells NCI-H358; host or cells: NCI-H358 (human cancer cell lines)
# recorded conditions: SOS1 degradation, NCI-H358 cells, 24 h, Western blot; read-out: NCI-H358 (G12C) DC50
attribute measured: DC50

The following molecules have reported results that may help.
COc1cc2nc(C)nc(N[C@H](C)c3cc(N)cc(C(F)(F)F)c3)c2cc1[C@H]1CC[C@H](C(=O)N2CCN(CCCC3CCN(C(=O)c4ccc(Cl)c(N5CCC(=O)NC5=O)c4)CC3)CC2)CC1 [Example 11] :: 1000 to 10000 nM
COc1cc2nc(C)nc(N[C@H](C)c3cc(N)cc(C(F)(F)F)c3)c2cc1[C@H]1CC[C@H](C(=O)N2CCN(CCOC3CCN(C(=O)c4ccc(Cl)c(N5CCC(=O)NC5=O)c4)CC3)CC2)CC1 [Example 30] :: 1000 to 10000 nM
COc1cc2nc(C)nc(N[C@H](C)c3cc(N)cc(C(F)(F)F)c3)c2cc1[C@H]1CC[C@H](C(=O)N2CCN(CC3CCC4(CC3)CCN(C(=O)c3cccc(N5CCC(=O)NC5=O)c3)CC4)CC2)CC1 [Example 21] :: 1000 to 10000 nM
COc1cc2nc(C)nc(N[C@H](C)c3cc(-c4c(Cl)cccc4CN(C)C)cs3)c2cc1[C@H]1CC[C@H](C(=O)N2CCN(CCC3CCC4(CC3)CCN(C(=O)c3ccc(Cl)c(N5CCC(=O)NC5=O)c3)CC4)CC2)CC1 [Example 62] :: < 50 nM

Turning now to a further record.
Data request: For the record COc1cc2nc(C)nc(N[C@H](C)c3cc(N)cc(C(F)(F)F)c3)c2cc1[C@H]1CC[C@H](C(=O)N2CCC(CCC3CCN(C(=O)c4ccc(Cl)c(N5CCC(=O)NC5=O)c4)CC3)CC2)CC1 [Example 15] , what value of DC50 is listed for SOS1 protein (Homo sapiens, UniProt Q07889)?
Data returned: 1000 to 10000 nM
